Documented protein stability index across a set of variants
B1: C9orf9 (parent)
chain: LTKASLKPRGCSKPPWRPPGGKL

Variants of: B1
Protocol Details: protein stability index of a GFP-peptide fusion (GPS, HEK-293T) (PSI 1-6); higher = more stable;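 note: lentivirally expressed fusions sorted by FACS into six bins by GFP to DsRed ratio, PSI derived from sequencing read proportions per bin multiplied by bin number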
Conditions: c terminus: native
The answer should be a number; do not append a unit.

Use these answered entries as a reference point.
LTKTSLKPRGCSKPPWRPPGGKL [A4T]
1.78
LAKASLKPRGCSKPPWRPPGGKL [T2A]
1.67
LTKASLKPRGCSKPPWPPPGGKL [R17P]
2.71
LTKASLKPIGCSKPPWRPPGGKL [R9I]
1.85
LTKASLKPSGCSKPPWRPPGGKL [R9S]
1.95

**Q:** // query protein stability index value for entry LTKASLKPRGCSKPPWRMPGGKL [P18M]
**A:** 3.68

**Q:** # lookup: protein stability index of LTSASLKPRGCSKPPWRPPGGKL [K3S]
**A:** 1.91

**Q:** Please report the recorded protein stability index for FTKASLKPRGCSKPPWRPPGGKL [L1F] .
**A:** 2.29

**Q:** Name the reported protein stability index value associated with the variant LTKASLKPRGCSKPPVRPPGGKL [W16V]
**A:** 3.43

**Q:** What value of measured protein stability index is listed for LTKASLKPRGCSKPNWRPPGGKL [P15N] ?
**A:** 1.77

**Q:** GET /values?readout=protein stability index&item= DTKASLKPRGCSKPPWRPPGGKL [L1D]
**A:** 1.76

**Q:** What value of measured protein stability index is listed for LTKASLCPRGCSKPPWRPPGGKL [K7C] ?
**A:** 1.68

**Q:** Requested field: protein stability index. Item: LTDASLKPRGCSKPPWRPPGGKL [K3D]
**A:** 2.39

**Q:** What protein stability index value was documented for this variant, LTKFSLKPRGCSKPPWRPPGGKL [A4F] ?
**A:** 1.75

**Q:** May I ask what protein stability index has been recorded for MTKASLKPRGCSKPPWRPPGGKL [L1M] ?
**A:** 1.86

**Q:** Recorded protein stability index for LTQASLKPRGCSKPPWRPPGGKL [K3Q] , please?
**A:** 2.6

**Q:** Which protein stability index value is on record for LTKASFKPRGCSKPPWRPPGGKL [L6F] ?
**A:** 2.35

**Q:** // protein stability index lookup, key: LTKASLKHRGCSKPPWRPPGGKL [P8H]
**A:** 1.65

**Q:** Looking for the measured protein stability index of LTKMSLKPRGCSKPPWRPPGGKL [A4M] , can you help?
**A:** 1.69

**Q:** Fill blank: measured protein stability index of the variant GTKASLKPRGCSKPPWRPPGGKL [L1G] is ____.
**A:** 2.5

**Q:** I would be grateful if you could share the reported protein stability index for LTKASLKPRGCSKPPWRPYGGKL [P19Y] .
**A:** 1.22

**Q:** Entry LTKISLKPRGCSKPPWRPPGGKL [A4I] : reported protein stability index = ?
**A:** 1.61

**Q:** Suppose we examine the variant LTKASLKPRGCSKPIWRPPGGKL [P15I] ; what protein stability index value has been reported?
**A:** 2.36

**Q:** Requested field: protein stability index. Item: LTKASLKPRNCSKPPWRPPGGKL [G10N]
**A:** 2.06

**Q:** protein stability index lookup needed for LTGASLKPRGCSKPPWRPPGGKL [K3G] , thanks.
**A:** 1.74

**Q:** Data request, read-out protein stability index, for LTKASLKPRGCLKPPWRPPGGKL [S12L]
**A:** 1.66

**Q:** Give the measured protein stability index of LTKASLKPRGCAKPPWRPPGGKL [S12A] .
**A:** 2.42
